Biological target: Serine/threonine-protein kinase mTOR (Homo sapiens) (UniProt P42345)
Experiment: Inhibition of mTOR signaling pathway in human Huh7.5 cells infected with FLAG-tagged HCV genotype 2a JFH-1 assessed as reduction in ratio of viral NS3 to cellular GAPDH protein level up to 50 uM after 72 hrs by Western blot analysis
Assay type: cell-based
The source made the active and inactive calls. The calls are words filed in the database; no cut-off is given here.
Readout Name: inhibition

Worked examples follow.
{"Structure Smiles String": "COc1ccc(-c2oc3c([N+](=O)[O-])cc(C)cc3c(=O)c2O)cc1OC", "inhibition": "inactive"}
{"Structure Smiles String": "COc1cc(-c2cc(=O)c3cc(Cl)cc(Cl)c3o2)cc(OC)c1OC", "inhibition": "inactive"}
{"Structure Smiles String": "COc1cc(O)c(C(=O)C#Cc2cc(OC)c(OC)c(OC)c2)c(OC)c1", "inhibition": "Active"}
{"Structure Smiles String": "COc1cc(-c2oc3c([N+](=O)[O-])cc(C)cc3c(=O)c2O)cc(OC)c1OC", "inhibition": "inactive"}
{"Structure Smiles String": "COc1ccc(-c2cc(=O)c3cc(C)cc([N+](=O)[O-])c3o2)cc1OC", "inhibition": "inactive"}

Would you mind giving inhibition for every molecule in the list below?
1. COc1cc(OC)c(C(=O)C#Cc2cc(OC)c(OC)c(OC)c2)c(O)c1C
2. COc1ccc(-c2oc3c(Cl)cc(Cl)cc3c(=O)c2O)cc1OC
3. CCCCCc1c(OC)cc(OC)c(C(=O)C#Cc2cc(OC)c(OC)c(OC)c2)c1O
4. COc1ccc(-c2cc(=O)c3cc(Br)cc(Br)c3o2)cc1OC
5. COc1ccc(C#CC(=O)c2cc(Br)cc(Br)c2O)cc1OC
6. COc1cc(-c2oc3c(Br)cc(Br)cc3c(=O)c2O)cc(OC)c1OC
7. COc1ccc(C#CC(=O)c2cc(C)cc([N+](=O)[O-])c2O)cc1OC
8. COc1cc(-c2oc3c(Cl)cc(Cl)cc3c(=O)c2O)cc(OC)c1OC

-- reply
["Active", "inactive", "inactive", "inactive", "Active", "inactive", "Active", "inactive"]
